# experimentalTarget: human CTLA-4 (Y166G and Y183G) expressed on CHO-K1.hCTLA-4 cells (human, UniProt P16410 36-223)
# Sequence (P16410 36-223 Y201G/Y218G limits assumed): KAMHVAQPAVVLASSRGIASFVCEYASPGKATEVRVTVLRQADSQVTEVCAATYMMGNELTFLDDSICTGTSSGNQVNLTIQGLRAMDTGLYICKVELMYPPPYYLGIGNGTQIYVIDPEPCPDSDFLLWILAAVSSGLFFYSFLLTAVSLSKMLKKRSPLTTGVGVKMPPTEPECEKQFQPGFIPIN
# procedureSummary: CELISA on CHO-K1.hCTLA-4 cells
measuredParameter: pEC50
Value format note: pEC50 is -log10 of concentration (mol/L); just state the number.

>>> reading("hCTLA4.27H5L5 (antibody, human IgG4 S228P, kappa, V domains shown, Humanized, human IgG4 (S228P) kappa; H5 read as hCTLA4.27VH5, L5 as hCTLA4.27VL5) VH: EVQLLQAGAVLARPGTSVKISCKASGYSFTTYWMNWVKQRPGKGLEWIGMIHPSDSETSLNQAFKDKAKLTAATSASIAYLEFSSLTNEDSAVYYCARIGRRNPYYFDYWGQGTLVTVSS VL: DIQMTQAPSSLSASVGDRVTITCRPSENLYTNLAWYQQKPGKAPKLLLYGATNLADGVPSRFSGSGSGTDYTLTISSLQAEDFATYYCQHLWGTPFTFGGGTKLEIKR")
10.46
>>> reading("hCTLA4.27H2L5 (antibody, human IgG4 S228P, kappa, V domains shown, Humanized, human IgG4 (S228P) kappa; H2 read as hCTLA4.27VH2, L5 as hCTLA4.27VL5) VH: EVQLVQSGAVLVKPGASVKVSCKASGYSFTTYWMNWVRQRPGKGLEWIGMIHPSDSETSLNQAFKDKVTITADESTSTAYMQLSSLRSEDTAVYYCARMGRRNPYYFDYWGQGTTVTVSS VL: DIQMTQAPSSLSASVGDRVTITCRPSENLYTNLAWYQQKPGKAPKLLLYGATNLADGVPSRFSGSGSGTDYTLTISSLQAEDFATYYCQHLWGTPFTFGGGTKLEIKR")
10.35
>>> reading("hCTLA4.27A.C4 (antibody, V domains shown, Chimeric: mouse variable domains on human IgG4, kappa; also called hCTLA4.27A chimeric hIgG4) VH: QVQLQQPGAVLVRPGVSVKLSCKASGYSFTTYWMNWVKQRPGQGLEWIGMIHPSDSETSLNQAFKDKATLTIDKSSSTAYMQLSSPTSEDSAVYFCARMGRRNPYYFDYWGQGTTLTVSS VL: DIQMTQSPVSLSVSVGETVTITCRPSENLYTNLAWYQQKQGKSPQLLVYGATNLADGVPSRFSGSGSGTQYSLRINSLQSEDFGTYYCQHLWGTPFTFGSGTKLELK")
10.48
>>> reading("hCTLA4.27H3L1 (antibody, human IgG4 S228P, kappa, V domains shown, Humanized, human IgG4 (S228P) kappa; H3 read as hCTLA4.27VH3, L1 as hCTLA4.27VL1) VH: EVQLVQSGAVVAKPGSSVKVSCKASGYSFTTYWMNWVRQAPGQGLEWMGMIHPSDSETSLNQAFKDRVTITADKSTSTAYMELSSLTSEDTAVYYCARMGRRNPYYFDYWGQGTTVTVSS VL: DIQMTQSPSSLSASVGDRVTITCRPSENLYTNLAWYQQKPGKAPKLLLYGATNLADGVPSRFSGSGSGTDYTLTISSLQPEDFATYYCQHLWGTPFTFGQGTKLEIKR")
10.15

Turning now to a further record.
What the record says about hCTLA4.27H4L2 (antibody, human IgG4 S228P, kappa, V domains shown, Humanized, human IgG4 (S228P) kappa; H4 read as hCTLA4.27VH4, L2 as hCTLA4.27VL2) VH: EVQLVQSGAEVKKPGASVKVSCKASGYSFTTYWMNWVRQAPGQGLEWMGMIHPSDSETSLNQAFKDRVTMTRDTSTSTVYMELSSLRSEDTAVYYCARMGRRNPYYFDYWGQGTLVTVSS VL: DIQMTQSPSSLSASVGDRVTITCRPSENLYTNLAWYQQKPGKAPKLLIYGATNLADGVPSRFSGSGSGTEFSLSISSLQPEDFATYYCQHLWGTPFTFGGGTKVEIKR : pEC50 is 10.33

All values here come from patent US20180037654A1.
